Where do the numbers come from? From patent US11780830B2.

Molecular target: recombinant human DAO (diamine oxidase) (Homo sapiens, UniProt P19801)
Construct: purchased R&D systems
Sequence (P19801 20-751): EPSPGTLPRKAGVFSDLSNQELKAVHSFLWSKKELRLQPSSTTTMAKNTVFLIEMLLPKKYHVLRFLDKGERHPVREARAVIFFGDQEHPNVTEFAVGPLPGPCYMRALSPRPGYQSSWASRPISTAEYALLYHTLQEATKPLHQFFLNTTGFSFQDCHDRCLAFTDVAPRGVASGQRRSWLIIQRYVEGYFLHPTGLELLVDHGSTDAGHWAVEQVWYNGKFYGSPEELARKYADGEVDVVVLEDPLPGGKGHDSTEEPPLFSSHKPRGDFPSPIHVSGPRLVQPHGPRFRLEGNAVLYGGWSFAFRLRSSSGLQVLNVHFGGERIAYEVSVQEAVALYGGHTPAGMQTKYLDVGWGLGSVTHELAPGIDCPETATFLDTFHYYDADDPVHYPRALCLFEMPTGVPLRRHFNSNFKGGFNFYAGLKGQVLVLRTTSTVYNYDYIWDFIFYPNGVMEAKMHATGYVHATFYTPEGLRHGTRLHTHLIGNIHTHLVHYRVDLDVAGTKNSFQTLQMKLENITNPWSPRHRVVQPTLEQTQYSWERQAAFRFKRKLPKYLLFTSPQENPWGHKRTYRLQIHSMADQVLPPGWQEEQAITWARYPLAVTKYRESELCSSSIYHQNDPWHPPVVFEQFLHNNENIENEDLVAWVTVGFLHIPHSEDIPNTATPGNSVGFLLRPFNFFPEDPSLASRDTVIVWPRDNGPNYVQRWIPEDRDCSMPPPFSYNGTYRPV
Experiment: Activity on recombinant human DAO, method similar to the VAP-1 assay
Format: biochemical
Details: substrate 1 mM putrescine; read-out: Inhibitory Activity (IC50, nM) DAO
Structures can show the parent of a compound that is named as a salt.
Binary label based on IC50 with cut-off 700 nM: below gives Y, not below gives N.

{"compound": "NC/C(=C\\F)Cn1ncn(Cc2ccc(-c3cc(F)c4c(c3)CNC4=O)s2)c1=O [Example 70, hydrochloride]", "category label": "Y"}
{"compound": "NC/C(=C\\F)Cn1ncn(Cc2ccc(-c3ccc(N4CCCCC4)nc3)s2)c1=O [Example 52, hydrochloride]", "category label": "Y"}
{"compound": "Cc1c(-c2ccc(Cn3cnn(C/C(=C/F)CN)c3=O)s2)ccc2c1NCCO2", "category label": "Y"}
{"compound": "CN1CC=C(c2ccc(Cn3cnn(C/C(=C/F)CN)c3=O)s2)CC1 [Example 58, hydrochloride]", "category label": "N"}
{"compound": "CS(=O)(=O)Nc1ccc(-c2ccc(Cn3cnn(C/C(=C/F)CN)c3=O)s2)cc1 [Example 7, hydrochloride]", "category label": "N"}
{"compound": "NC/C(=C\\F)Cn1ncn(Cc2ccc(-c3ccc(OCC4CC4)nc3)s2)c1=O", "category label": "N"}
{"compound": "NC/C(=C\\F)Cn1ncn(Cc2ccc(-c3ccc4c(c3)CCCO4)s2)c1=O [Example 109, hydrochloride]", "category label": "N"}

###

Target: recombinant human DAO (diamine oxidase) (Homo sapiens, UniProt P19801)
Construct: purchased R&D systems
Test: Activity on recombinant human DAO, method similar to the VAP-1 assay
Type: biochemical
Conditions: substrate 1 mM putrescine; read-out: Inhibitory Activity (IC50, nM) DAO
Where a name gives a salt, the structure may show the parent alone.
List of log10 of IC50 values.
endpoint: log10 of IC50 (log10 of the value in nM)

{"molecule": "CS(=O)(=O)Nc1cccc(-c2ccc(Cn3cnn(C/C(=C/F)CN)c3=O)s2)c1", "data value": 2.76}
{"molecule": "NC/C(=C\\F)Cn1ncn(Cc2ccc(-c3cnc4[nH]ccc4c3)s2)c1=O [Example 65, hydrochloride]", "data value": 3.18}
{"molecule": "Cn1cncc1C#Cc1ccc(Cn2cnn(C/C(=C/F)CN)c2=O)s1 [Example 130, hydrochloride]", "data value": 3.18}
{"molecule": "NC/C(=C\\F)Cn1ncn(Cc2ccc(-c3ccc(OC(F)F)cc3)s2)c1=O", "data value": 3.49}
{"molecule": "NC/C(=C\\F)Cn1ncn(Cc2cc3cc(-c4ccc(N5CCNCC5)cc4)ccc3s2)c1=O", "data value": 3.18}
{"molecule": "NC/C(=C\\F)Cn1ncn(Cc2ccc(-c3cnc4c(c3)COC(=O)N4)s2)c1=O", "data value": 2.67}
{"molecule": "NC/C(=C\\F)Cn1ncn(Cc2ccc(/C=C/c3cnc4c(c3)NC(=O)CO4)s2)c1=O [Example 124, hydrochloride]", "data value": 2.43}
{"molecule": "NC/C(=C\\F)Cn1ncn(Cc2ccc(-c3ccc4c(c3)OCC(=O)N4)s2)c1=O [Example 84, hydrochloride]", "data value": 3.11}
{"molecule": "CN(C)c1ccc(-c2ccc(CCn3cnn(C/C(=C/F)CN)c3=O)s2)cn1", "data value": 2.72}
{"molecule": "NC/C(=C\\F)Cn1ncn(Cc2ccc(C#Cc3cnc4c(c3)NCCO4)s2)c1=O", "data value": 3.04}
{"molecule": "CN1C(=O)CCc2cc(-c3ccc4sc(Cn5cnn(C/C(=C/F)CN)c5=O)cc4c3)ccc21", "data value": 3.00}
{"molecule": "COCCNc1ncc(-c2ccc(Cn3cnn(C/C(=C/F)CN)c3=O)s2)cn1 [Example 53, hydrochloride]", "data value": 2.58}
{"molecule": "CN(C)c1ccc(/C=C/c2ccc(Cn3cnn(C/C(=C/F)CN)c3=O)s2)cc1", "data value": 3.04}
{"molecule": "CCn1cc(-c2ccc(Cn3cnn(C/C(=C/F)CN)c3=O)s2)cn1", "data value": 3.67}
{"molecule": "CS(=O)(=O)c1ccc(-c2ccc(CCn3cnn(C/C(=C/F)CN)c3=O)s2)cc1", "data value": 1.83}
